Where do the numbers come from? From paper PMC12442081.

Test system: Micrococcus yunnanensis (MY)
METHOD SUMMARY: Effectiveness of peptides on spiked fuel samples (aqueous layer)
Type: cell-based
Design: key: (+) =1 (implying peptide activity in fuel environment); (X) = 0 (implying no activity in the desired range, indicated by microbial proliferation); Fuel x = -1(implying no activity in fuel environment)
CONDITIONS USED: initial screening in spiked fuel
OUTCOME MEASURE: activity considering MIC value/efficacy upon fuel co-incubation

CC[C@H](C)[C@H](N)C(=O)N[C@@H](CC(C)C)C(=O)N[C@@H](CC(C)C)C(=O)N[C@@H](Cc1c[nH]c2ccccc12)C(=O)N[C@@H](CCCCN)C(=O)N[C@@H](Cc1c[nH]c2ccccc12)C(=O)N1CCC[C@H]1C(=O)N[C@@H](Cc1c[nH]c2ccccc12)C(=O)N[C@@H](Cc1c[nH]c2ccccc12)C(=O)N1CCC[C@H]1C(=O)N[C@@H](Cc1c[nH]c2ccccc12)C(=O)N[C@@H](CCCNC(=N)N)C(=O)N[C@@H](CCCNC(=N)N)C(=O)O :: +
CC[C@H](C)[C@H](N)C(=O)N[C@H](C(=O)N1CCC[C@H]1C(=O)N[C@@H](Cc1c[nH]c2ccccc12)C(=O)N[C@@H](CCCCN)C(=O)N[C@@H](Cc1c[nH]c2ccccc12)C(=O)N1CCC[C@H]1C(=O)N[C@@H](Cc1c[nH]c2ccccc12)C(=O)N[C@@H](Cc1c[nH]c2ccccc12)C(=O)N1CCC[C@H]1C(=O)N[C@@H](Cc1c[nH]c2ccccc12)C(=O)N[C@@H](CCCNC(=N)N)C(=O)N[C@@H](CCCNC(=N)N)C(=O)O)[C@@H](C)CC :: +
CC[C@H](C)[C@H](N)C(=O)N[C@@H](CC(C)C)C(=O)N[C@H](C(=O)N[C@@H](Cc1c[nH]c2ccccc12)C(=O)N[C@@H](CCCCN)C(=O)N[C@@H](Cc1c[nH]c2ccccc12)C(=O)N1CCC[C@H]1C(=O)N[C@@H](Cc1c[nH]c2ccccc12)C(=O)N[C@@H](Cc1c[nH]c2ccccc12)C(=O)N1CCC[C@H]1C(=O)N[C@@H](Cc1c[nH]c2ccccc12)C(=O)N[C@@H](CCCNC(=N)N)C(=O)N[C@@H](CCCNC(=N)N)C(=O)O)C(C)C :: X
